Overview of recorded TGI for various compounds
- System: BT-549 breast
- Experiment: NCI tumour cell line growth inhibition, 48 h

>  <Compound>
CCCC1C(=O)Nc2cccc3ncn(c23)C1=O (stereo not given)

>  <Lt Gt Eq>
>

>  <TGI / µM>
100

$$$$
>  <Compound>
CN(C)c1nc(=NCc2ccco2)ss1

>  <Lt Gt Eq>
=

>  <TGI / µM>
38.4

$$$$
>  <Compound>
CC(C)c1nc(N(C)S(C)(=O)=O)nc(-c2ccc(F)cc2)c1/C=C/[C@@H](O)C[C@@H](O)CC(=O)O

>  <Lt Gt Eq>
>

>  <TGI / µM>
100

$$$$
>  <Compound>
Cc1ccc2nc(-c3ccc(OCC(=O)N=Nc4c(O)[nH]c5ccccc45)cc3)[nH]c2c1

>  <Lt Gt Eq>
>

>  <TGI / µM>
100

$$$$
>  <Compound>
CNNC(=N\S(=O)(=O)c1cc(C)c(Cl)cc1SCc1ccccc1)/N=C/c1ccc([N+](=O)[O-])s1

>  <Lt Gt Eq>
>

>  <TGI / µM>
100

$$$$
>  <Compound>
O=C(/C=C/c1ccc(C(F)(F)F)cc1)Nc1ccc(C=C2c3ccccc3C(=O)c3ccccc32)cc1

>  <Lt Gt Eq>
=

>  <TGI / µM>
48

$$$$
>  <Compound>
CCN1CCN(c2cc(C)nc(N(CCCNc3ccnc4cc(Cl)ccc34)Cc3ccc4c(c3)OCO4)n2)CC1

>  <Lt Gt Eq>
=

>  <TGI / µM>
8.5

$$$$
>  <Compound>
COCC1OC(S(=O)(=O)c2ccccc2)C(O)C(OC)C1OC (stereo not given)

>  <Lt Gt Eq>
>

>  <TGI / µM>
100

$$$$
>  <Compound>
CCOC(=O)NNC(=O)NCc1ccccc1CNC(=O)NNC(=O)OCC

>  <Lt Gt Eq>
>

>  <TGI / µM>
100

$$$$
>  <Compound>
CCCCCN(CCCCC)CC(O)c1cc(Cl)ccc1OC (stereo not given)

>  <Lt Gt Eq>
=

>  <TGI / µM>
38.3

$$$$
